Value source: paper PMC12069892

procedureText: Stability in liver microsomes
Assay type: in vitro ADME, mouse
testContext: mouse, liver microsomes, pH 7.4
measuredMetric: half-life

> print(dat)
                                   molecule  endpointresult
1  O=C(Nc1ccc(C(F)(F)F)cc1C(F)(F)F)c1cc(F)ccc1O [A22]        54.4 min

###

targetOfAssay: CYP2C9 (Homo sapiens, UniProt P11712)
Sequence (P11712 whole entry): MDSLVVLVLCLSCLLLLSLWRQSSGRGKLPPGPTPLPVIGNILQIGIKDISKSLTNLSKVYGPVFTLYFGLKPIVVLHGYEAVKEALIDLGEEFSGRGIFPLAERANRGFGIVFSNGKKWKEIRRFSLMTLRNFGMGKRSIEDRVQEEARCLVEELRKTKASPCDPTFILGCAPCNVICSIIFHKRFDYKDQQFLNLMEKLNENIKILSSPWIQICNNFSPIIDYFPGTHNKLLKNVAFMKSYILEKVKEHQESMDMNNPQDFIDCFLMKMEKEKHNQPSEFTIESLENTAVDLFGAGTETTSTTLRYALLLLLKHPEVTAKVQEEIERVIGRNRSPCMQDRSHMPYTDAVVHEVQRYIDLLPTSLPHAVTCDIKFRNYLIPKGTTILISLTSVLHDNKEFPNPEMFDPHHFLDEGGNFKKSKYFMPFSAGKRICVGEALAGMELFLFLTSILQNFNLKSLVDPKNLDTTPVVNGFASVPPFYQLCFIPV
measuredMetric: IC50 (nM)

> print(dat)
                            structurestring  endpointresult
1  O=C(Nc1ccc(C(F)(F)F)cc1C(F)(F)F)c1cc(F)ccc1O             290
